# Tested on: Crj: CD(SD)IGS rats
# details: rat, in vivo, 300 mg/kg/day
readout-type: Histopathological changes (PLsis): Spleen

• CN(C)CCCN1c2ccccc2Sc2ccc(Cl)cc21 = −
• CC/C(=C(\c1ccccc1)c1ccc(OCCN(C)C)cc1)c1ccccc1 = −
• CNCCC(Oc1ccc(C(F)(F)F)cc1)c1ccccc1 (centres unmarked) = −
• CN(C)CCCN1c2ccccc2CCc2ccc(Cl)cc21 = −
• CCCCc1oc2ccccc2c1C(=O)c1cc(I)c(OCCN(CC)CC)c(I)c1 = −

---

Quick reference: PAG + hippuric acid/creatinine of the listed items.
# System: Crj: CD(SD)IGS rats
# method-description: Urinary PAG/hippuric acid ratio by 1H NMR in rats
# details: rat urine, 300 mg/kg/day by gavage, 3 days, mean n = 3-4
readout-type: PAG + hippuric acid/creatinine

* CN(C)CCCN1c2ccccc2Sc2ccc(Cl)cc21 | 1.63
* CC/C(=C(\c1ccccc1)c1ccc(OCCN(C)C)cc1)c1ccccc1 | 1.16

---

# Test system: Crj: CD(SD)IGS rats
# details: rat, in vivo, 1000 mg/kg/day
readout-type: Histopathological changes (PLsis): Spleen

* CCCCc1oc2ccccc2c1C(=O)c1cc(I)c(OCCN(CC)CC)c(I)c1 [Amiodarone] | +
* CC/C(=C(\c1ccccc1)c1ccc(OCCN(C)C)cc1)c1ccccc1 [Tamoxifen, tamoxifen] | −
* CN(C)CCCN1c2ccccc2CCc2ccc(Cl)cc21 [Clomipramine, clomipramine] | −
* CN(C)CCCN1c2ccccc2Sc2ccc(Cl)cc21 [Chlorpromazine, chlorpromazine] | −

---

# System: Crj: CD(SD)IGS rats
# details: rat, in vivo, 300 mg/kg/day
readout-type: Histopathological changes (PLsis): Lymph node

* CN(C)CCCN1c2ccccc2CCc2ccc(Cl)cc21 [Clomipramine, clomipramine] | +
* CN(C)CCCN1c2ccccc2Sc2ccc(Cl)cc21 [Chlorpromazine, chlorpromazine] | −
* CNCCC(Oc1ccc(C(F)(F)F)cc1)c1ccccc1 (centres unmarked) [Fluoxetine, fluoxetine] | −
* CC/C(=C(\c1ccccc1)c1ccc(OCCN(C)C)cc1)c1ccccc1 [Tamoxifen, tamoxifen] | +
* CCCCc1oc2ccccc2c1C(=O)c1cc(I)c(OCCN(CC)CC)c(I)c1 [Amiodarone] | +

---

# Tested on: Crj: CD(SD)IGS rats
# details: rat, in vivo, 300 mg/kg/day
readout-type: Histopathological changes (PLsis): Lung

* CN(C)CCCN1c2ccccc2Sc2ccc(Cl)cc21 [Chlorpromazine, chlorpromazine] | −
* CCCCc1oc2ccccc2c1C(=O)c1cc(I)c(OCCN(CC)CC)c(I)c1 [Amiodarone] | +
* CN(C)CCCN1c2ccccc2CCc2ccc(Cl)cc21 [Clomipramine, clomipramine] | +
* CNCCC(Oc1ccc(C(F)(F)F)cc1)c1ccccc1 (centres unmarked) [Fluoxetine, fluoxetine] | +
* CC/C(=C(\c1ccccc1)c1ccc(OCCN(C)C)cc1)c1ccccc1 [Tamoxifen, tamoxifen] | +

---

# Tested on: Crj: CD(SD)IGS rats
# details: rat, in vivo, 1000 mg/kg/day
readout-type: Histopathological changes (PLsis): Others

• CCCCc1oc2ccccc2c1C(=O)c1cc(I)c(OCCN(CC)CC)c(I)c1 = −
• CN(C)CCCN1c2ccccc2Sc2ccc(Cl)cc21 = −
• CC/C(=C(\c1ccccc1)c1ccc(OCCN(C)C)cc1)c1ccccc1 = −

Data origin, for the record: patent US7399638B2
